- Tested on: ACHN renal
- assay-method-text: NCI tumour cell line growth inhibition, 48 h; in the data active means GI50 below about 0.43 µM; inactive means the rest
Classes used: 1 (active), -1 (inactive)

N#CC1=C(N)OC2=C(CCOc3c2ccc2ccccc32)C1c1ccc(Br)cc1 (stereo not given)    -1
S=C(SSC(=S)N1CCCCC1)N1CCCCC1    -1
Cc1cc(N2CCOCC2)nc(NCc2cc(Nc3ccnc4cc(Cl)ccc34)ccc2F)n1    -1
O=C(C(=CN1CCN(C(=O)c2ccco2)C1=S)C(=O)c1ccccc1)c1ccccc1    -1
CN(CCCCCl)P(=O)(OCc1ccc([N+](=O)[O-])o1)OCC1OC(n2cc([N+](=O)[O-])c(=O)[nH]c2=O)CC1O (stereo not given)    -1
COc1cnccc1Nc1nc(-c2nn(Cc3c(F)cc(OCCO)cc3F)c3ccccc23)ncc1OC    -1
COc1ccc2nc3ccccc3c(NCCNCC(C)O)c2c1 (stereo not given)    1
O=C1NC(=NCCc2ccc(Br)cc2)S/C1=C\c1ccc2ncccc2c1    -1
COc1cc(-c2ccc[nH]2)[nH]c1/C=C1\N=C(C)C(CC(=O)OCC(C)(C)C)=C1C    1
COc1ccc2c(c1)-c1c(c3cc(OC)ccc3n(CCN(C)C)c1=O)C2=O    1

###

Let's look at some molecules and their measured GI50.
- Test system: MDA-MB-231 breast
- assay-method-text: NCI tumour cell line growth inhibition, 48 h
quantity-measured: GI50

CCOC(=O)/C=C1/SC(=Nc2ccc(C#N)cc2)N(Cc2ccco2)C1=O    4290 nM
Cc1cc(N(CCNc2ccnc3cc(Cl)ccc23)Cc2ccc3c(c2)OCO3)nc(N2CCCC2)n1    1280 nM
COc1cc(C2NC(=O)C(C#N)=C(Nc3cccc(C)c3)S2)ccc1O (stereo not drawn)    > 100000 nM
CC(C)(C)[Si](C)(C)OC1[C@@H](COC(=O)NC(=O)CCl)O[C@@H](n2cnc3c(N)ncnc32)[C@H]1O[Si](C)(C)C(C)(C)C (stereo partly drawn)    1120 nM
COc1cc(C(=O)O[C@H](C(=O)NCCCCNC(=O)[C@@H](OC(=O)c2cc(OC)cc3c(C)cccc23)[C@]2(C)CO2)[C@]2(C)CO2)c2cccc(C)c2c1    1850 nM
O=C1/C(=C/c2ccc([N+](=O)[O-])o2)Oc2ccc(Cl)cc21    1770 nM
FC(F)(F)c1cccc(-c2[nH]ncc2-c2nnnn2-c2ccccc2)c1    3200 nM
COC(=O)c1cc2cc(/C=C3/SC(=S)N(N(C(C)=O)C(C)=O)C3=O)oc2n1Cc1ccccc1    20600 nM

###

- System: M14 melanoma
- assay-method-text: NCI tumour cell line growth inhibition, 48 h; in the data active means GI50 below about 0.43 µM; inactive means the rest
Classes used: true (active), false (inactive)

COc1ccc(-c2[nH]ncc2Nc2cc(OC)c(OC)c(OC)c2)cc1    false
CC1OC(O[C@@H]2C=C3CC[C@@H]4[C@H](CC[C@]5(C)[C@@H](c6ccc(=O)oc6)CC[C@]45O)[C@@]3(C)CC2)C(O)C(OC2OC(CO)C(O)C(O)C2O)C1O (some centres undefined)    true
COc1cc(C(=O)O[C@H](C(=O)NCCCCNC(=O)[C@@H](OC(=O)c2cc(OC)cc3c(C)cccc23)[C@]2(C)CO2)[C@]2(C)CO2)c2cccc(C)c2c1    true
Cc1ccc(-c2nc3sc(C)cn3c2/C=C2\C(=O)Nc3ccc(Cl)cc32)cc1    false
O=C1NC(=NCCc2ccc(Br)cc2)S/C1=C\c1ccc2ncccc2c1    false
O=C1/C(=C/c2ccc(C(F)(F)F)cc2)COc2ccc(O)c(O)c21    false
CCC(=O)Nc1nnc(Cc2ccc(OC)c(OC)c2)s1    false
Fc1ccc(Nc2nc(Nc3ccc(-c4nc5ccccc5[nH]4)cc3)c3cn[nH]c3n2)cc1    false
CC(=O)c1c(C)c2cnc(Nc3ccc(N4CCNCC4)cn3)nc2n(C2CCCC2)c1=O    false

// data source = PubChem BioAssay (NCI)
